assay: Cytotoxicity against human SGC-7901 cells assessed as cell viability at 250 ug/ml incubated for 72 hrs by CCK8 assay relative to control; format: toxicity, cell-based; settings: at 250 µg/mL, read-out: Activity
Consider the following molecules; for each one, report its viability at 72 h, 250 ug/ml.
API: value field is a number in %; no unit string.

For O=c1[nH]nc(C(O)CNc2ccc(OCc3ccccc3)cc2)[nH]1 (stereo not drawn) , write its viability at 72 h, 250 ug/ml.
94.2

Quickly give me recorded viability at 72 h, 250 ug/ml for CC(C)c1ccc(N2CC(Cc3n[nH]c(=O)o3)OC2=O)cc1 (stereo not drawn)
90.7

Give viability at 72 h, 250 ug/ml for CCc1cccc(N2CC(Cc3n[nH]c(=O)o3)OC2=O)c1 (stereo not drawn)
89.3

# return recorded viability at 72 h, 250 ug/ml for entry Cc1cc(C)cc(N2CC(Cc3n[nH]c(=O)o3)OC2=O)c1 (stereo not drawn)
92.5

Provide one value: measured viability at 72 h, 250 ug/ml of O=C1OC(Cc2n[nH]c(=O)o2)CN1c1ccccc1OCc1ccccc1 (stereo not drawn)
94.6

Give viability at 72 h, 250 ug/ml for O=C1OC(Cc2n[nH]c(=O)o2)CN1c1cccc(OCc2ccccc2)c1 (stereo not drawn)
90.2

Find the measured viability at 72 h, 250 ug/ml of O=c1[nH]nc(C(O)CNc2cccc(OCc3ccccc3)c2)[nH]1 (stereo not drawn) and report it.
93.4

Consider the molecule O=C1OC(c2n[nH]c(=O)o2)CN1c1cccc(OCc2ccccc2)c1 (stereo not drawn) and give its recorded viability at 72 h, 250 ug/ml.
87.6

* * *

molecular target: Urease subunit alpha/Urease subunit beta (Helicobacter pylori (strain ATCC 700392 / 26695) (Campylobacterpylori), UniProt P69996); experiment: Inhibition of Helicobacter pylori urease using urea as substrate assessed as decrease in ammonia production incubated for 0.5 hrs by indole phenol method
Sequence (P69996 whole entry): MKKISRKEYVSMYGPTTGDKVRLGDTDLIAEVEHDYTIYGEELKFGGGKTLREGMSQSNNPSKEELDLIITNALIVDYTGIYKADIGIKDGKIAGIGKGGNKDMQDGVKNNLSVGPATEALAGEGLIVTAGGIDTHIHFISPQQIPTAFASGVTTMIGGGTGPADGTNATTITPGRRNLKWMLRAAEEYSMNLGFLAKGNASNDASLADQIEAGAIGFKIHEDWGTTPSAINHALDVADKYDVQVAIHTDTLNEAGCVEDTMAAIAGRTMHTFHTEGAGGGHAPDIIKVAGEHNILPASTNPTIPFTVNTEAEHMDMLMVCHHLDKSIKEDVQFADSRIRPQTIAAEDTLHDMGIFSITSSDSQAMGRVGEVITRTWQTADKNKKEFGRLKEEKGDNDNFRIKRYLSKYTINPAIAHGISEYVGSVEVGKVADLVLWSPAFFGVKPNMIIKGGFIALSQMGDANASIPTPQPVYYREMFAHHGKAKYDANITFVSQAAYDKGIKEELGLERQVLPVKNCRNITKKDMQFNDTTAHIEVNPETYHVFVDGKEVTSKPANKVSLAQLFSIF
Sequence (P14916 whole entry, further chain): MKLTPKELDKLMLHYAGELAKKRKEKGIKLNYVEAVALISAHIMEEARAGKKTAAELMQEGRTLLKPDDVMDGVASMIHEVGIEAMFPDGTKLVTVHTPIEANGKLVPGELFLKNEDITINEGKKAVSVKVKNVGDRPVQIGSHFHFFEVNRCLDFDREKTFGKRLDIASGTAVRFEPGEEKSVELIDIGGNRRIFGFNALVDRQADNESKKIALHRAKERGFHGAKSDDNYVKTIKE
What pKi was measured for each of the following?
Give only the number. pKi is defined as minus log10 of concentration in molar units.

Entry O=c1[nH]nc(C(O)CNc2cccc(OCc3ccccc3)c2)[nH]1 (stereo not drawn) needs its pKi filled in; supply it.
5.65

Find the measured pKi of Cc1cc(C)cc(N2CC(Cc3n[nH]c(=O)o3)OC2=O)c1 (stereo not drawn) and report it.
5.17

Write down pKi measured for item O=C1OC(Cc2n[nH]c(=O)o2)CN1c1ccccc1OCc1ccccc1 (stereo not drawn)
6.62

* * *

experiment: Cytotoxicity against human K562 cells assessed as cell viability at 250 ug/ml incubated for 72 hrs by CCK8 assay relative to control; format: toxicity, cell-based; conditions: at 250 µg/mL, read-out: Activity
assay-readout: viability at 72 h, 250 ug/ml (%)
Give your result in % as a bare value.

Supply recorded viability at 72 h, 250 ug/ml for O=C1OC(Cc2n[nH]c(=O)o2)CN1c1ccccc1OCc1ccccc1 (stereo not drawn) here.
93.8

Please give the documented viability at 72 h, 250 ug/ml of O=c1[nH]nc(C(O)CNc2ccc(OCc3ccccc3)cc2)[nH]1 (stereo not drawn)
89.8

Report measured viability at 72 h, 250 ug/ml; entry is O=C1OC(Cc2n[nH]c(=O)o2)CN1c1cccc(OCc2ccccc2)c1 (stereo not drawn)
90.5

Provide only the value of recorded viability at 72 h, 250 ug/ml for O=c1[nH]nc(C(O)CNc2cccc(OCc3ccccc3)c2)[nH]1 (stereo not drawn)
91.6

Return value of viability at 72 h, 250 ug/ml for input CCc1cccc(N2CC(Cc3n[nH]c(=O)o3)OC2=O)c1 (stereo not drawn) , no commentary.
95.3

Give recorded viability at 72 h, 250 ug/ml. CC(C)c1ccc(N2CC(Cc3n[nH]c(=O)o3)OC2=O)cc1 (stereo not drawn)
88.9

Identify the reported viability at 72 h, 250 ug/ml for the following entry. O=C1OC(c2n[nH]c(=O)o2)CN1c1cccc(OCc2ccccc2)c1 (stereo not drawn)
90.7

Determine its reported viability at 72 h, 250 ug/ml: Cc1cc(C)cc(N2CC(Cc3n[nH]c(=O)o3)OC2=O)c1 (stereo not drawn)
92.7
